All figures here come from patent US20240158446A1.

system: human lung cancer strain NCI-H441; assay: cells; details: NCI-H441, 96 h, read-out: NCI-H441 IC50 (nM), NCI-H441 cell proliferation, 4 days, CellTiter-Glo;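 also: cell proliferation inhibition after four days measured by CellTiter-Glo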
# maps each entry to its IC50
I only need the number, in nM, no unit after it.

compound	IC50 (nM)
CCCN(C)C(=O)[C@@H]1CC(=O)N(C)[C@@H](C)C(=O)N[C@@H]([C@@H](C)CC)C(=O)N(C)CC(=O)N(C)[C@H]2C/C=C\CCN(C2=O)[C@@H](Cc2ccc(C(F)(F)F)cc2)C(=O)N(C)CC(=O)N[C@@H](CCc2cc(F)c(C(F)(F)F)c(F)c2)C(=O)N2C[C@H](OCC)C[C@H]2C(=O)NC2(CC(F)(F)C2)C(=O)N(C)[C@@H](C2CCCC2)C(=O)N1C [PP1731]	7.4

Next:
IC50 measured on CCCN(C)C(=O)[C@@H]1CC(=O)N(C)[C@@H](COC)C(=O)N[C@@H]([C@@H](C)CC)C(=O)N(C)CC(=O)N(C)[C@H]2C/C=C\CCN(C2=O)[C@@H](Cc2ccc(C(F)(F)F)cc2)C(=O)N(C)CC(=O)N[C@@H](CCc2cc(F)c(C(F)(F)F)c(F)c2)C(=O)N2C[C@H](OCC)C[C@H]2C(=O)NC2(CC(C)(C)C2)C(=O)N(C)[C@@H](C2CCCC2)C(=O)N1C [PP1672] = 6
